System: biotinyl-Val-oxazolone
Test: self-aminoacylation, catalytic enhancement (BVO) (fold over background); higher = more active; k-Seq, kA / k0A0; sequences stand for … in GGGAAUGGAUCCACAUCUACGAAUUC…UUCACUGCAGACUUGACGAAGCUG
This sample holds only a part of the variants without activity.
Value Type: self-aminoacylation
Write the number on its own, no unit after it.

Observe how each entry below is paired with its result.
AUUCGCCUAGGUCAUCUGGUG [Fam2.2 aminoacylation ribozyme variant]    2.23
UUACUUCAAGCAAUCGGUCUG [Fam1A.1 aminoacylation ribozyme variant]    0.95
AUUACCCUCGUCAUCGGGUGA [Fam2.1 aminoacylation ribozyme variant]    2.77
AAGUUUGCUUAUUGUCGCAAG [Fam3.1 aminoacylation ribozyme variant]    0.713

Query: self-aminoacylation; subject: GUUCACCUAAGUCAUCGGGUG [Fam2.2 aminoacylation ribozyme variant] 5.4

Query: self-aminoacylation; subject: AUUCACCUAUGUCAUCGGCUG [Fam2.2 aminoacylation ribozyme variant] 1.3

Query: self-aminoacylation; subject: UCACAAUUCAAGCAAUCGGUC [Fam1B.1 aminoacylation ribozyme variant] 0.986

Query: self-aminoacylation; subject: AGUACCCUGGUCAUCCAGUGA [Fam2.1 aminoacylation ribozyme variant] 2.86

Query: self-aminoacylation; subject: AAGUUUGCUAAUAAUCGCAAA [Fam3.1 aminoacylation ribozyme variant] 1.14

====

Test system: biotinyl-Phe-oxazolone
Experiment: self-aminoacylation, catalytic enhancement (BFO) (fold over background); higher = more active; k-Seq, kA / k0A0; sequences stand for … in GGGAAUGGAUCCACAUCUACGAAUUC…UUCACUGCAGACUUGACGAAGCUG
This sample holds only a part of the variants without activity.
# self-aminoacylation listing for each entry below
Write the number on its own, no unit after it.

CUACAUCAAACAAGCGGUCUG [Fam1A.1 aminoacylation ribozyme variant]    4.11
AUUACCCUGGUCAUCGGGUGU [Fam2.1 aminoacylation ribozyme variant]    722

Query: self-aminoacylation; subject: CCACACGUCAAGCAAACGGUC [Fam1B.1 aminoacylation ribozyme variant] 0.465

====

System: biotinyl-Trp-oxazolone
Experiment: self-aminoacylation, catalytic enhancement (BWO) (fold over background); higher = more active; k-Seq, kA / k0A0; sequences stand for … in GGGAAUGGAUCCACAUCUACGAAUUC…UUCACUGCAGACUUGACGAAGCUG
Fewer inactive variants are shown than the library holds.
# self-aminoacylation listing for each entry below
Write the number on its own, no unit after it.

Observe how each entry below is paired with its result.
CUACCUCAAACAAGCGGUCUG [Fam1A.1 aminoacylation ribozyme variant]    1.11
CCACUCUUCAAGCAAUGGGUC [Fam1B.1 aminoacylation ribozyme variant]    0.647
GUUACCCUGGUCAUCGCGUGA [Fam2.1 aminoacylation ribozyme variant]    26.8

Now for the sequence whose self-aminoacylation we want.
Query: self-aminoacylation; subject: ACACACUUCAAGCAAUCGGUC [Fam1B.1 aminoacylation ribozyme variant] 13.1

====

System: biotinyl-Trp-oxazolone
Test: self-aminoacylation, catalytic enhancement (BWO) (fold over background); higher = more active; k-Seq, kA / k0A0; sequences stand for … in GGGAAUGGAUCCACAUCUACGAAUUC…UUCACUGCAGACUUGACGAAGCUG
Fewer inactive variants are shown than the library holds.
Value Type: self-aminoacylation
Write the number on its own, no unit after it.

AAUUUUGAUAAUAGUCGCAAG [Fam3.1 aminoacylation ribozyme variant]    1.37
CUACUUGAGACAAUCGGUCUG [Fam1A.1 aminoacylation ribozyme variant]    1.1
AUGACCCUGGUCAUCGUGUGA [Fam2.1 aminoacylation ribozyme variant]    2.61

Could you share what self-aminoacylation was measured for CCACACUUCUAGCAAUCGGUG [Fam1B.1 aminoacylation ribozyme variant] , tested on biotinyl-Trp-oxazolone? 3.09

Could you share what self-aminoacylation was measured for AAGAUUGCUAAUAGCCGCAAG [Fam3.1 aminoacylation ribozyme variant] , tested on biotinyl-Trp-oxazolone? 2.47

Could you share what self-aminoacylation was measured for AUUACCCUGAUCAUCGAAUGA [Fam2.1 aminoacylation ribozyme variant] , tested on biotinyl-Trp-oxazolone? 0.561

Could you share what self-aminoacylation was measured for AUUACCCUGGUCAUCGAAUGU [Fam2.1 aminoacylation ribozyme variant] , tested on biotinyl-Trp-oxazolone? 0.653

Could you share what self-aminoacylation was measured for AUUACCCUGGGCAUCGAGUCA [Fam2.1 aminoacylation ribozyme variant] , tested on biotinyl-Trp-oxazolone? 0.708

Could you share what self-aminoacylation was measured for GUUAACCUAGGUCAUCGGGUG [Fam2.2 aminoacylation ribozyme variant] , tested on biotinyl-Trp-oxazolone? 12.7

====

System: biotinyl-Ile-oxazolone
Assay: self-aminoacylation, catalytic enhancement (BIO) (fold over background); higher = more active; k-Seq, kA / k0A0; sequences stand for … in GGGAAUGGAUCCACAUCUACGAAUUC…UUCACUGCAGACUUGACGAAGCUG
Fewer inactive variants are shown than the library holds.
# cutoff 1 applies to self-aminoacylation; >= gives label 1, < gives label 0

CCACACUUCUAGCAAUCGGUG [Fam1B.1 aminoacylation ribozyme variant]    label 1

# check: self-aminoacylation of ACUCACCUAGGUCAACGGGUG [Fam2.2 aminoacylation ribozyme variant] is greater than or equal to 1 label 1

====

# self-aminoacylation listing for each entry below
System: biotinyl-Leu-oxazolone
Assay: self-aminoacylation, catalytic enhancement (BLO) (fold over background); higher = more active; k-Seq, kA / k0A0; sequences stand for … in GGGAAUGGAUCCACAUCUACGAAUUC…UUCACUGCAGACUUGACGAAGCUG
This sample holds only a part of the variants without activity.

Observe how each entry below is paired with its result.
CCACACUUCUAGCAAUCGGUG [Fam1B.1 aminoacylation ribozyme variant]    4.64
AUUCACCUAAGUCACCGGGUG [Fam2.2 aminoacylation ribozyme variant]    8.36
CCACACUUUAAGCAAUCGGCC [Fam1B.1 aminoacylation ribozyme variant]    1.22
AUCCCCCUGGUCAUCGAGUGA [Fam2.1 aminoacylation ribozyme variant]    6.5
AUUACUCCGGUCAUCGAGUGA [Fam2.1 aminoacylation ribozyme variant]    5.43

Query: self-aminoacylation; subject: AAGUAUGCUAAUAGUCCCAAG [Fam3.1 aminoacylation ribozyme variant] 1.02

Query: self-aminoacylation; subject: AUUAACCUGAUCAUCGAGUGA [Fam2.1 aminoacylation ribozyme variant] 10.2

Query: self-aminoacylation; subject: ACACUCUUCAAGCAAUCGGUC [Fam1B.1 aminoacylation ribozyme variant] 1.11

Query: self-aminoacylation; subject: AUUACCCUGGUCUUCGAAUGA [Fam2.1 aminoacylation ribozyme variant] 0.694

Query: self-aminoacylation; subject: CUACUCCACACAAUCGGUCUG [Fam1A.1 aminoacylation ribozyme variant] 0.702

Query: self-aminoacylation; subject: UAGUUUGCUAAUCGUCGCAAG [Fam3.1 aminoacylation ribozyme variant] 1.11

Query: self-aminoacylation; subject: GUUACCCUGGUCAUGGAGUGA [Fam2.1 aminoacylation ribozyme variant] 5.89

Query: self-aminoacylation; subject: UGGUUUGCUAAUAGUCGCAAG [Fam3.1 aminoacylation ribozyme variant] 1.58

Query: self-aminoacylation; subject: AUUCACCUAAGUCAACGGGUG [Fam2.2 aminoacylation ribozyme variant] 4.67

Query: self-aminoacylation; subject: AUACACCUUGGUCAUCGGGUG [Fam2.2 aminoacylation ribozyme variant] 4.72

Query: self-aminoacylation; subject: AUUACCCUGGUCAAAGAGUGA [Fam2.1 aminoacylation ribozyme variant] 8.08

Query: self-aminoacylation; subject: AAUUUUGCUAAUAGGCGCAAG [Fam3.1 aminoacylation ribozyme variant] 1.12

Query: self-aminoacylation; subject: CUACUUUAAACAAUCGGUGUG [Fam1A.1 aminoacylation ribozyme variant] 0.855

====

Test system: biotinyl-Met-oxazolone
Assay: self-aminoacylation, catalytic enhancement (BMO) (fold over background); higher = more active; k-Seq, kA / k0A0; sequences stand for … in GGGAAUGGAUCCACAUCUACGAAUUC…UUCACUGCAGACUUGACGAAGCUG
This sample holds only a part of the variants without activity.
# self-aminoacylation listing for each entry below
Write the number on its own, no unit after it.

Observe how each entry below is paired with its result.
AUUCGCCUAGCUCAUCGGGUG [Fam2.2 aminoacylation ribozyme variant]    2.28
GCACACUUCAAGGAAUCGGUC [Fam1B.1 aminoacylation ribozyme variant]    1.55
AUGUUUGGUAAUAGUCGCAAG [Fam3.1 aminoacylation ribozyme variant]    1.79
CAACUUCGAACAAUCGGUCUG [Fam1A.1 aminoacylation ribozyme variant]    1.1

Query: self-aminoacylation; subject: AUUACCCUGAUCAUCGAGUGA [Fam2.1 aminoacylation ribozyme variant] 7.96

Query: self-aminoacylation; subject: CUACUUCAAACCAGCGGUCUG [Fam1A.1 aminoacylation ribozyme variant] 0.722

Query: self-aminoacylation; subject: AAGUCUGCUAAUAGUCGCCAG [Fam3.1 aminoacylation ribozyme variant] 1.34
